assay_info: Quantitative High-Throughput drug screen in 47 multiple myeloma cell lines against the NCATS MIPE library collection: VP6_DJ cell viability assay (AID 1919867); further: nearly all actives have a fitted effect of over 40% in size
measurement_conditions: ATP luminescence, 48 h; series mostly up to 45.8 µM
Records with an inconclusive call do not appear. The source made the active and inactive calls. The call rests on the fitted dose curve; in most records, active means well fitted cell-killing curve with a large enough effect; inconclusive means small, poorly fitted or top-dose-only effect, or effect the other way; inactive means no such curve, though single readings can be large or run the other way.
The categories you may choose from are yes (active), no (inactive)

Qu. Please indicate how the test categorized "O=C(O)c1cc(=O)c2c(OCC(O)COc3cccc4oc(C(=O)O)cc(=O)c34)cccc2o1" .
Ans. yes

Qu. // param item: "CN(C)[C@@H](CCOc1cccc2ccccc12)c1ccccc1" ; yields the recorded call
Ans. yes

Qu. Dear colleague, could you share the recorded outcome for "Cc1cc(O)c2c(c1)C(=O)c1cc(O)cc(O)c1C2=O" when you have a moment?
Ans. no

Qu. Please share the test call associated with "Nc1nc(OCc2ccccc2)c2[nH]cnc2n1" .
Ans. yes

Qu. Test call for this compound, please: "COc1cc(Nc2c(C#N)cnc3cc(OCCCN4CCN(C)CC4)c(OC)cc23)c(Cl)cc1Cl"
Ans. yes

Qu. Hi, do you know how COC(=O)C1=C(C)NC(C)=C(C(=O)OC(C)C)C1c1cccc2nonc12 (stereo not given) came out in this test?
Ans. yes

Qu. Any idea what this test logged for Cc1nccn1CC1CCc2c(c3ccccc3n2C)C1=O (stereo not given) ?
Ans. no

Qu. Just curious, what result did "CC(C)(S)[C@@H](N)C(=O)O" get here?
Ans. no

Qu. Hi, sorry to bother you, what did the test record for "O=C(NCCO[N+](=O)[O-])c1cccnc1" ?
Ans. no

Qu. Hi, sorry to bother you, what did the test record for "CN(c1nccc(=O)[nH]1)C1CCN(c2nc3ccccc3n2Cc2ccc(F)cc2)CC1" ?
Ans. yes

---

assay_info: Drug repurposing screens with cells derived from glioblastoma tumor samples (AID 1345199); further: on the % scale 0 is the no-effect control and ±100 the full control effect; nearly all actives have a fitted effect of over 40% in size
measurement_conditions: GBM patient neurospheres viability, ATP luminescence, 48 h; at 45.9 µM (top of the series); tumour line D
Records with an inconclusive call do not appear.
endpoint: activity, negative = cell killing (%)
Numeric only. Scale: %

>>> endpoint_value("CC(C)(S)[C@@H](N)C(=O)O")
-6.11
>>> endpoint_value("CC(=O)Nc1ccc(O)cc1")
-3.31

Qu. GET /values?readout=activity, negative = cell killing&item= "CN(C)C(=O)COC(=O)Cc1ccc(OC(=O)c2ccc(N=C(N)N)cc2)cc1"
Ans. 2.44

Qu. So what's the measured activity, negative = cell killing for this one? "CCC[C@@H]1C[C@@H](C(=O)N[C@@H]([C@H]2O[C@H](SC)[C@H](O)[C@@H](O)[C@H]2O)[C@@H](C)O)N(C)C1"
Ans. 5.06

---

System: PC26
assay_info: qHTS profiling for inhibitors of Plasmodium falciparum proliferation (AID 504749); further: nearly all actives have a fitted effect of over 60% in size
measurement_conditions: P. falciparum in erythrocytes, SYBR Green DNA, 72 h; series mostly up to 28.7 µM
Procedure: NIH National Institute of Allergy and Infectious Diseases [NIAID] NIH Chemical Genomics Center [NCGC] […] Because mature erythrocytes lack DNA, only Plasmodium-derived DNA is detected. NCGC Assay Protocol Summary: The SYBR Green viability assay was adapted from a method described previously (Plouffe et al., 2008). […] The following morning, fluorescence intensity at 485(14) nm excitation and 535(25) nm emission wavelengths was measured on an EnVision (Perkin Elmer) plate reader. […]
Records with an inconclusive call do not appear. Active and inactive are the calls of the source. Calls come from the whole dose curve; as a rule, active = well fitted inhibition curve with a large enough effect; inconclusive = small, poorly fitted or top-dose-only effect; inactive = flat fitted curve, though single readings scatter.
Pick from active, inactive when you respond.

Example results:
>>> class_name("CS(=O)(=O)OCCCCOS(C)(=O)=O")
"inactive"
>>> class_name("C=CCc1cc(OC)c(O)c(C(=O)NCCO)c1")
"inactive"
>>> class_name("CC(C)(S)[C@@H](N)C(=O)O")
"inactive"
>>> class_name("Nc1ccc(S(N)(=O)=O)cc1")
"inactive"
>>> class_name("CCC1=C(C)CN(C(=O)NCCc2ccc(S(=O)(=O)NC(=O)NC3CCC(C)CC3)cc2)C1=O (configuration not stated)")
"inactive"
>>> class_name("COc1cc2c(cc1OC)C1CC(=O)C(CC(C)C)CN1CC2 (configuration not stated)")
"inactive"
>>> class_name("O=C(O)c1cccnc1Nc1cccc(C(F)(F)F)c1")
"inactive"
>>> class_name("CC1(C)CCC(C)(C)c2cc(NC(=O)c3ccc(C(=O)O)cc3)ccc21")
"inactive"

Qu. Status in this test for "O=P(O)(O)C(O)(Cn1ccnc1)P(=O)(O)O" ?
Ans. inactive

Qu. Which outcome was entered for the molecule Cc1c(OCC(F)(F)F)ccnc1CS(=O)c1nc2ccccc2[nH]1 (configuration not stated) in this test?
Ans. inactive

Qu. In this assay, the call recorded for CCCCC(CC)COC(=O)C(C#N)=C(c1ccccc1)c1ccccc1 (configuration not stated) was what?
Ans. inactive

Qu. For "O=c1oc2cc(O)ccc2s1" , what call appears in the results of this test?
Ans. inactive

Qu. // return assay outcome for Clc1ccc(C(Cn2ccnc2)OCc2ccsc2Cl)c(Cl)c1 (configuration not stated)
Ans. active

---

assay_info: Quantitative High-Throughput drug screen in 47 multiple myeloma cell lines against the NCATS MIPE library collection: U266_ATCC cell viability assay (AID 1919864); further: nearly all actives have a fitted effect of over 35% in size
measurement_conditions: U266 myeloma viability, CellTiter-Glo ATP luminescence, 48 h; series mostly up to 45.8 µM
Inconclusive results are not listed. Calls of active or inactive are those of the source. The call rests on the fitted dose curve; in most records, active means well fitted cell-killing curve with a large enough effect; inconclusive means small, poorly fitted or top-dose-only effect, or effect the other way; inactive means no such curve, though single readings can be large or run the other way.
Would you mind answering with one of these outcomes? y (active), n (inactive)

These recorded examples may help you get a feel for the data.
>>> class_name("c1cnc2cc3c(cc2n1)C1CNCC3C1")
"n"
>>> class_name("Cc1cc(=O)c2c(O)c3c(O)cc(=O)c4c3c3c(cc(O)c1c23)C(C)(C)C=4O")
"y"
>>> class_name("C[C@H](Cc1ccc(O)c(O)c1)[C@@H](C)Cc1ccc(O)c(O)c1")
"y"
>>> class_name("Clc1ccc(C(Cn2ccnc2)OCc2ccc(Sc3ccccc3)cc2)c(Cl)c1 (stereo unspecified)")
"n"

Qu. Please indicate how the test categorized "C=C(c1ccc(C(=O)O)cc1)c1cc2c(cc1C)C(C)(C)CCC2(C)C" .
Ans. n

Qu. Field: outcome | Entry: Nc1cccc2c1CN(C1CCC(=O)NC1=O)C2=O (stereo unspecified)
Ans. n

---

assay_info: Quantitative High-Throughput drug screen in 47 multiple myeloma cell lines against the NCATS MIPE library collection: H1112_PLB cell viability assay (AID 1918967; further: nearly all actives have a fitted effect of over 30% in size)
measurement_conditions: H1112 myeloma cells viability, ATP luminescence, 48 h; series mostly up to 45.8 µM
Inconclusive results are not listed. The source made the active and inactive calls. The call rests on the fitted dose curve; in most records, active means well fitted cell-killing curve with a large enough effect; inconclusive means small, poorly fitted or top-dose-only effect, or effect the other way; inactive means no such curve, though single readings can be large or run the other way.
Your reply should match one of these outcome classes. active, inactive

>>> class_name("CCC[C@@H]1C[C@@H](C(=O)N[C@@H]([C@H]2O[C@H](SC)[C@H](O)[C@@H](O)[C@H]2O)[C@@H](C)O)N(C)C1")
"inactive"
>>> class_name("C=CCc1cc(OC)c(O)c(C(=O)NCCO)c1")
"inactive"
>>> class_name("O=C(O)CCNC(=O)c1ccc(N=Nc2ccc(O)c(C(=O)O)c2)cc1")
"inactive"
>>> class_name("O=C1c2c(O)cc(O)cc2OC(c2ccc(O)c(O)c2)C1O (stereo not drawn)")
"inactive"
>>> class_name("COc1ccc2cc([C@H](C)C(=O)O)ccc2c1")
"inactive"

Qu. // param item: "Cc1nc(-c2ccc(OCC(C)C)c(C#N)c2)sc1C(=O)O" ; yields the recorded call
Ans. inactive

Qu. Per the records of this test, what outcome belongs to "Cc1nc2n(c(=O)c1CCN1CCC(c3noc4cc(F)ccc34)CC1)CCCC2" ?
Ans. inactive

Qu. Lab log entry: "C=C(c1ccc(C(=O)O)cc1)c1cc2c(cc1C)C(C)(C)CCC2(C)C" — outcome as called in the assay?
Ans. inactive

Qu. // return assay outcome for "CC1(C)NC(=O)N(c2ccc([N+](=O)[O-])c(C(F)(F)F)c2)C1=O"
Ans. active

Qu. How did this test come out for "O=C(CCc1ccc(O)cc1)c1c(O)cc(O)cc1O" ?
Ans. active

Qu. What was the test verdict on "N=C(N)c1ccc2cc(OC(=O)c3ccc(N=C(N)N)cc3)ccc2c1" ?
Ans. inactive

---

assay_info: Cell Viability - LYMP2-005 (AID 967);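 further: cells exposed to compound for 24 h at 37 °C; plate controls were DMSO only for no effect and 92 µM tetraoctylammonium bromide control for full effect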
measurement_conditions: LYMP2-005 lymphoblastoid cell viability; series mostly up to 92.2 µM
Records with an inconclusive call do not appear. Active and inactive are the calls of the source. Calls come from the whole dose curve; as a rule, active = well fitted cell-killing curve with a large enough effect; inconclusive = small, poorly fitted or top-dose-only effect, or effect the other way; inactive = no such curve, though single readings can be large or run the other way. Peptide text beside a SMILES is read from it.
endpoint: outcome

>>> endpoint_value("COC(=O)[C@H](Cc1ccccc1)NC(=O)[C@@H](N)CC(=O)O (H-Asp-Phe-OMe)")
"inactive"
>>> endpoint_value("CS(=O)(=O)OCCCCOS(C)(=O)=O")
"inactive"
>>> endpoint_value("Cc1cc(O)c2c(c1)C(=O)c1cc(O)cc(O)c1C2=O")
"inactive"
